Tested on: carrageenan induced paw edema
method notes: Anti-inflammatory activity: acute carrageenan induced paw edema in rats
Type: in vivo, Wister rats
condition set: 2 h; 10 mg kg^−1 indomethacin mol equivalent, intraperitoneally; mean ± SE
Field 'label' (enum: met / not met). Set to met when Mean edema thickness is strictly under 1 mm; else not met.

[[record]]
compound = "COc1cc(/C=C/C(=O)CC(=O)/C=C/c2ccc(OC(=O)C(C)N)c(OC)c2)ccc1OC(=O)C(C)N.Cl.Cl (stereo not shown)"
target_or_system = "carrageenan induced paw edema"
assigned_class = "met"

[[record]]
compound = "COc1cc(/C=C/C(=O)CC(=O)/C=C/c2ccc(OC(=O)[C@H](CCSC)NC(=O)OC(C)(C)C)c(OC)c2)ccc1OC(=O)[C@H](CCSC)NC(=O)OC(C)(C)C"
target_or_system = "carrageenan induced paw edema"
assigned_class = "not met"

[[record]]
compound = "COc1cc(/C=C/C(=O)CC(=O)/C=C/c2ccc(OC(=O)[C@H](Cc3ccccc3)NC(=O)OCC3c4ccccc4-c4ccccc43)c(OC)c2)ccc1OC(=O)[C@H](Cc1ccccc1)NC(=O)OCC1c2ccccc2-c2ccccc21"
target_or_system = "carrageenan induced paw edema"
assigned_class = "not met"

[[record]]
compound = "COc1cc(/C=C/C(=O)CC(=O)/C=C/c2ccc(OC(=O)C(C)NC(=O)OCc3ccccc3)c(OC)c2)ccc1OC(=O)C(C)NC(=O)OCc1ccccc1 (stereo not shown)"
target_or_system = "carrageenan induced paw edema"
assigned_class = "met"

[[record]]
compound = "COc1cc(/C=C/C(=O)CC(=O)/C=C/c2ccc(OC(=O)[C@@H](C)N)c(OC)c2)ccc1OC(=O)[C@@H](C)N.Cl.Cl"
target_or_system = "carrageenan induced paw edema"
assigned_class = "met"

[[record]]
compound = "COc1cc(/C=C/C(=O)CC(=O)/C=C/c2ccc(OC(=O)CN)c(OC)c2)ccc1OC(=O)CN.Cl.Cl"
target_or_system = "carrageenan induced paw edema"
assigned_class = "met"


Consider the compound CC(C)Cc1ccc(C(C)C(=O)O)cc1 (stereo not shown) . Is its Mean edema thickness strictly less than 1 mm? met

Check if Mean edema thickness falls below 1 mm for COc1cc(/C=C/C(=O)CC(=O)/C=C/c2ccc(OC(=O)[C@@H](N)CCSC)c(OC)c2)ccc1OC(=O)[C@@H](N)CCSC.Cl.Cl . met

Does COc1cc(/C=C/C(=O)CC(=O)/C=C/c2ccc(OC(=O)CNC(=O)OCc3ccccc3)c(OC)c2)ccc1OC(=O)CNC(=O)OCc1ccccc1 have Mean edema thickness strictly under 1 mm? not met

Item COc1cc(/C=C/C(=O)CC(=O)/C=C/c2ccc(OC(=O)[C@@H](C)NC(=O)OCc3ccccc3)c(OC)c2)ccc1OC(=O)[C@@H](C)NC(=O)OCc1ccccc1 : Mean edema thickness beneath 1 mm, strictly? met

Threshold test, Mean edema thickness < 1 mm: COc1cc(/C=C/C(=O)CC(=O)/C=C/c2ccc(OC(=O)[C@H](CCC(N)=O)NC(=O)OC(C)(C)C)c(OC)c2)ccc1OC(=O)[C@H](CCC(N)=O)NC(=O)OC(C)(C)C not met

Threshold test, Mean edema thickness < 1 mm: COc1cc(/C=C/C(=O)CC(=O)/C=C/c2ccc(OC(=O)CCN)c(OC)c2)ccc1OC(=O)CCN.Cl.Cl met

Please indicate whether the reported Mean edema thickness of COc1cc(/C=C/C(=O)CC(=O)/C=C/c2ccc(OC(=O)[C@H](CCSC)NC(=O)OCc3ccccc3)c(OC)c2)ccc1OC(=O)[C@H](CCSC)NC(=O)OCc1ccccc1 is strictly below 1 mm. met

Answer whether the compound COc1cc(/C=C/C(=O)CC(=O)/C=C/c2ccc(OC(=O)[C@@H](CCSC)NC(=O)OCc3ccccc3)c(OC)c2)ccc1OC(=O)[C@@H](CCSC)NC(=O)OCc1ccccc1 has Mean edema thickness strictly less than 1 mm met

Please let me know if COc1cc(/C=C/C(=O)CC(=O)/C=C/c2ccc(OC(=O)C(C)NC(=O)OC(C)(C)C)c(OC)c2)ccc1OC(=O)C(C)NC(=O)OC(C)(C)C (stereo not shown) shows Mean edema thickness below 1 mm. not met

Problem: For the compound COc1cc(/C=C/C(=O)CC(=O)/C=C/c2ccc(OC(=O)[C@H](C)NC(=O)OCC3c4ccccc4-c4ccccc43)c(OC)c2)ccc1OC(=O)[C@H](C)NC(=O)OCC1c2ccccc2-c2ccccc21 , is Mean edema thickness under 1 mm? not met

Does this compound meet the criterion Mean edema thickness < 1 mm? COc1cc(/C=C/C(=O)CC(=O)/C=C/c2ccc(OC(=O)[C@H](Cc3ccccc3)NC(=O)OCc3ccccc3)c(OC)c2)ccc1OC(=O)[C@H](Cc1ccccc1)NC(=O)OCc1ccccc1 not met

Mean edema thickness under 1 mm? Item: COc1cc(/C=C/C(=O)CC(=O)/C=C/c2ccc(OC(=O)[C@H](CCSC)NC(=O)OCC3c4ccccc4-c4ccccc43)c(OC)c2)ccc1OC(=O)[C@H](CCSC)NC(=O)OCC1c2ccccc2-c2ccccc21 met

Please indicate whether the reported Mean edema thickness of COc1cc(/C=C/C(=O)CC(=O)/C=C/c2ccc(OC(=O)[C@H](C)NC(=O)OCc3ccccc3)c(OC)c2)ccc1OC(=O)[C@H](C)NC(=O)OCc1ccccc1 is strictly below 1 mm. not met

Take the compound COc1cc(/C=C/C(=O)CC(=O)/C=C/c2ccc(OC(=O)[C@H](C)N)c(OC)c2)ccc1OC(=O)[C@H](C)N.Cl.Cl and say whether its Mean edema thickness is less than 1 mm. not met

Please determine if COc1cc(/C=C/C(=O)CC(=O)/C=C/c2ccc(OC(=O)[C@@H](NC(=O)OCc3ccccc3)C(C)C)c(OC)c2)ccc1OC(=O)[C@@H](NC(=O)OCc1ccccc1)C(C)C is below 1 mm in terms of Mean edema thickness. not met
